Target: Histone deacetylase 8 (Homo sapiens)
Sequence (Q9BY41 whole entry): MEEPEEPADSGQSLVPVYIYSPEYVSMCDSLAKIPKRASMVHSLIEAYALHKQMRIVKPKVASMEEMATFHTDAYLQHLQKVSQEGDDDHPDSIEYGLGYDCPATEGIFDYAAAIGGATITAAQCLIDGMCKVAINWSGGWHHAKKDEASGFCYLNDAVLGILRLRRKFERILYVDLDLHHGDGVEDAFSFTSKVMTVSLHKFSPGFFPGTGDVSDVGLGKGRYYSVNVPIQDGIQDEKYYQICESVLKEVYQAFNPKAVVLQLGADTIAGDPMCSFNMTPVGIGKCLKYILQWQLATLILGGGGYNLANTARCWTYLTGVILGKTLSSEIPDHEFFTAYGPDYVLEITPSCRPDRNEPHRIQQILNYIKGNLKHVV
Assay: Inhibition of HDAC8 (unknown origin) using Fluoro-Substrate Peptide as substrate by fluorescence based assay
pIC50: −log10 of the molar value.

>  <smiles.text>
COc1ccc(-c2ccc3c(NC(=O)CCCCCCC(=O)NO)n[nH]c3c2)cc1

>  <pIC50>
8.40

$$$$
